experiment: in vivo; conditions: both sexes, Wistar Han, rat, po, 150 mg/kg, Cmax
measure: Cmax (µg/mL)
Write the answer as a number in µg/mL, unit excluded.

input: Requested field: Cmax. Item: CC#C[C@@H](CC(=O)O)c1ccc(OCC(C)=C(C)C)cc1
output: 125

###

assay: Stability in microsomes, mini pig; assay type: in vitro ADME; details: Mini pig microsomes, mean n = 2
Known half-life at 3 μM of a selection of compounds
Output should be the measured figure followed by the unit it is expressed in.

input: I would be grateful if you could share the reported half-life at 3 μM for Cc1cc(OCCCS(C)(=O)=O)cc(C)c1-c1cccc(COc2ccc3c(c2)OC[C@H]3CC(=O)O)c1 [TAK-875, fasiglifam, reference compound] .
output: 15 min

Let us examine a further case.
input: Fill in: half-life at 3 μM of CC#C[C@@H](CC(=O)O)c1ccc(OCC(C)=C(C)C)cc1 is ___
output: 31 min

###

assay: in vivo; conditions: both sexes, Wistar Han, rat, po, 600 mg/kg/day, Cmax (Mean)
measure: Cmax (µg/mL)
I only need the number, in µg/mL, no unit after it.

input: Request the reported Cmax associated with CC#C[C@@H](CC(=O)O)c1ccc(OCC(C)=C(C)C)cc1
output: 257

###

test: Stability in cryopreserved hepatocytes, dog; format: in vitro ADME; settings: cryopreserved hepatocytes (suspension); Dog (Beagle) hepatocytes, mean n = 2
measure: half-life at 3 μM (min)
Reply numerically in min, unit not repeated.

input: Name the reported half-life at 3 μM value associated with the molecule CC#C[C@@H](CC(=O)O)c1ccc(OCC(C)=C(C)C)cc1
output: 180

###

target: MRP2 (Homo sapiens, UniProt Q92887);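 note: membrane vesicles with probe substrate plus 2 mM glutathione, incubated with 4 mM ATP or AMP (AMP as background control), vesicle-retained substrate measured by liquid scintillation counting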
Sequence (Q92887 whole entry): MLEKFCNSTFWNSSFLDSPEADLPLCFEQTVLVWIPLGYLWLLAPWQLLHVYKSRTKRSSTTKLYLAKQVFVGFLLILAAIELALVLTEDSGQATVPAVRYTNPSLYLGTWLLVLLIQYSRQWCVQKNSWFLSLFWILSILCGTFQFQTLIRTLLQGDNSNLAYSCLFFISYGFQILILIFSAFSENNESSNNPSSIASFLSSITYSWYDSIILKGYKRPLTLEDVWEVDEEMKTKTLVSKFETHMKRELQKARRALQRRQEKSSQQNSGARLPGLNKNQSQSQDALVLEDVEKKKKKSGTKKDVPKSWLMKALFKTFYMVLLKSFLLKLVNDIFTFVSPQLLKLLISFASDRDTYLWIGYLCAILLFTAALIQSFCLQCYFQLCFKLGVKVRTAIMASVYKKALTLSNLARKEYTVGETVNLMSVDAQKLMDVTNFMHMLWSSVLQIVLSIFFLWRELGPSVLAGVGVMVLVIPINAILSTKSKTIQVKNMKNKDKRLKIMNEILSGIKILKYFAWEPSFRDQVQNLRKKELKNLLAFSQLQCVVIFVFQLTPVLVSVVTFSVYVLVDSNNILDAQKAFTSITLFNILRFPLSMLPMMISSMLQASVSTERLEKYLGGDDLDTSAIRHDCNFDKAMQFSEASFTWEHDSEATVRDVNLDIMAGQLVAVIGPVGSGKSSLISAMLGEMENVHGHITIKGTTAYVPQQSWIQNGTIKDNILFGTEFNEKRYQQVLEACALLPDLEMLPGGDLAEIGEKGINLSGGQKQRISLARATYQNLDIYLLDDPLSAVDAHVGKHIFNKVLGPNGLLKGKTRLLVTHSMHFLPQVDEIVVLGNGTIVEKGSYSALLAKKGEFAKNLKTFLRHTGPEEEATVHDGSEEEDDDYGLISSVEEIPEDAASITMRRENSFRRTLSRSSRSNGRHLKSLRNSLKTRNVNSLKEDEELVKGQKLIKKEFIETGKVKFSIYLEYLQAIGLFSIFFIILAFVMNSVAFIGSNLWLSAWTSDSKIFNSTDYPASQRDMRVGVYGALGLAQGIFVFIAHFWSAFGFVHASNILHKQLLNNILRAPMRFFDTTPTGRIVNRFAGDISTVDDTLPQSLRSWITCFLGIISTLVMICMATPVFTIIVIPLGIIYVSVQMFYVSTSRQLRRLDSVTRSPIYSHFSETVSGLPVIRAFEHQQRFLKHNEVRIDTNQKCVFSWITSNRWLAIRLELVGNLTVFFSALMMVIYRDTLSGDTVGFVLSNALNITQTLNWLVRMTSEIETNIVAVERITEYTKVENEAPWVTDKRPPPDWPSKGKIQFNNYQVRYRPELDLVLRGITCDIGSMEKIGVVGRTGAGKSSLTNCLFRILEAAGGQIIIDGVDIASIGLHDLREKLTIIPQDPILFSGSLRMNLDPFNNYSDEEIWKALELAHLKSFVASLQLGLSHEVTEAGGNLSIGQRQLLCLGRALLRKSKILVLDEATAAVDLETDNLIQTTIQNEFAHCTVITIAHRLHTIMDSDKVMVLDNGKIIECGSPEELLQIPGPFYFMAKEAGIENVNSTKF
measure: pIC50
Quick note: pIC50 values are minus log10 of concentrations in mol/L.

input: Name the reported pIC50 value associated with the molecule Cc1cc(OCCCS(C)(=O)=O)cc(C)c1-c1cccc(COc2ccc3c(c2)OC[C@H]3CC(=O)O)c1 [TAK-875, fasiglifam, reference compound]
output: 4.32

###

Measured viability at 48 h, 50 µM, listed per entry for reference.
assay: Viability assay, human primary hepatocytes, RT-glo, 48 h; type: cell-based; settings: human, primary human hepatocytes, sheet Fig1 panel C (primary human hepatocytes), 48 h, 50 uM, replicates; read-out: viability, normalized to DMSO-treated controls
Field: numeric (%). Do not append units.

input: Fill blank: measured viability at 48 h, 50 µM of the molecule Cc1cc(OCCCS(C)(=O)=O)cc(C)c1-c1cccc(COc2ccc3c(c2)OC[C@H]3CC(=O)O)c1 [TAK-875, fasiglifam, reference compound] is ____.
output: 34.1

Moving on to the next molecule.
input: Reported viability at 48 h, 50 µM for CC#C[C@@H](CC(=O)O)c1ccc(OCC(C)=C(C)C)cc1 : what is it?
output: 94.1

###

assay: Stability in microsomes, dog; format: in vitro ADME; settings: Dog (Beagle) microsomes, mean n = 2
measure: microsomal CLint at 3 μM (µL/min/mg)
The reply should be a number in µL/min/mg, with the unit left off.

input: # get_value(readout='microsomal CLint at 3 μM', item= Cc1cc(OCCCS(C)(=O)=O)cc(C)c1-c1cccc(COc2ccc3c(c2)OC[C@H]3CC(=O)O)c1 [TAK-875, fasiglifam, reference compound] )
output: 12.4

--- query ---
input: Looking for the measured microsomal CLint at 3 μM of CC#C[C@@H](CC(=O)O)c1ccc(OCC(C)=C(C)C)cc1 [CPL207280] , can you help?
output: 17.1

###

test: Stability in microsomes, dog; type: in vitro ADME; details: Dog (Beagle) microsomes, mean n = 2
measure: half-life at 3 μM (h)
// return numeric value only (unit: h, not printed)

input: I am curious: what half-life at 3 μM value has been reported for CC#C[C@@H](CC(=O)O)c1ccc(OCC(C)=C(C)C)cc1 ?
output: 1.35

input: Lookup Cc1cc(OCCCS(C)(=O)=O)cc(C)c1-c1cccc(COc2ccc3c(c2)OC[C@H]3CC(=O)O)c1 [TAK-875, fasiglifam, reference compound]
output: 1.87

###

half-life at 3 μM values, listed per item
assay: Stability in microsomes, rat; assay type: in vitro ADME; conditions: Rat (Sprague Dawley) microsomes, mean n = 2

input: Name the recorded half-life at 3 μM for CC#C[C@@H](CC(=O)O)c1ccc(OCC(C)=C(C)C)cc1 [CPL207280] .
output: 1.15 h

Now, please, on to the next molecule.
input: Item under review: Cc1cc(OCCCS(C)(=O)=O)cc(C)c1-c1cccc(COc2ccc3c(c2)OC[C@H]3CC(=O)O)c1 [TAK-875, fasiglifam, reference compound] . Reported half-life at 3 μM?
output: 1.98 h

###

assay: Single-dose pharmacokinetics in monkeys (p.o. and i.v.); type: in vivo, monkey; conditions: monkey, plasma, po, 1.5 mg/kg; monkeys, 1,5 mg/kg p.o.
measure: Tmax (h)
Kindly answer with a numeric value in h, unit omitted.

input: So what's the measured Tmax for this one? CC#C[C@@H](CC(=O)O)c1ccc(OCC(C)=C(C)C)cc1 [CPL207280]
output: 1

###

assay: Stability in cryopreserved hepatocytes, monkey; assay type: in vitro ADME; settings: cryopreserved hepatocytes (suspension); Monkey (Cynomolgus) hepatocytes, mean n = 2
measure: half-life at 3 μM (min)
Field format: number, assumed min, no unit text.

input: Give the measured half-life at 3 μM of CC#C[C@@H](CC(=O)O)c1ccc(OCC(C)=C(C)C)cc1 .
output: 17

###

molecules and their reported half-life at 3 μM
assay: Stability in microsomes, monkey; type: in vitro ADME; conditions: Monkey (Cynomolgus) microsomes, mean n = 2

input: Need half-life at 3 μM of Cc1cc(OCCCS(C)(=O)=O)cc(C)c1-c1cccc(COc2ccc3c(c2)OC[C@H]3CC(=O)O)c1 [TAK-875, fasiglifam, reference compound] , thanks.
output: 30 min

Kindly consider the entry below.
input: Can you look up the measured half-life at 3 μM of CC#C[C@@H](CC(=O)O)c1ccc(OCC(C)=C(C)C)cc1 for me?
output: 23 min

###

assay: Single-dose pharmacokinetics in rats (p.o. and i.v.); assay type: in vivo, rat; settings: rat, plasma, iv, 3 mg/kg, rats, 3 mg/kg i.v.
measure: Tmax

input: Record request: Tmax value, item CC#C[C@@H](CC(=O)O)c1ccc(OCC(C)=C(C)C)cc1 [CPL207280]
output: 4.98 min

---
input: So what's the measured Tmax for this one? Cc1cc(OCCCS(C)(=O)=O)cc(C)c1-c1cccc(COc2ccc3c(c2)OC[C@H]3CC(=O)O)c1 [TAK-875, fasiglifam, reference compound]
output: 4.98 min

###

assay: Single-dose pharmacokinetics in monkeys (p.o. and i.v.); type: in vivo, monkey; conditions: monkey, plasma, intravenous; monkeys, single dose
measure: k el (s⁻¹)
Expressed in s⁻¹, but write only the number.

input: Can you look up the measured k el of CC#C[C@@H](CC(=O)O)c1ccc(OCC(C)=C(C)C)cc1 for me?
output: 5.56e-05

###

assay: Stability in cryopreserved hepatocytes, monkey; type: in vitro ADME; conditions: cryopreserved hepatocytes (suspension); Monkey (Cynomolgus) hepatocytes, mean n = 2
measure: microsomal CLint at 3 μM (µL/min/mg)
Give just the number in µL/min/mg; leave the unit off.

input: Data request, read-out microsomal CLint at 3 μM, for CC#C[C@@H](CC(=O)O)c1ccc(OCC(C)=C(C)C)cc1 [CPL207280]
output: 81.4

###

molecular target: OATP1A2 (Homo sapiens); experiment: Uptake transporter inhibition assay, OATP1A2;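 note: cellular uptake of a radiolabeled probe substrate in HBSS pH 7.4 at 37 °C with test compound or solvent, measured by liquid scintillation counting of cell lysates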
Sequence (P46721 whole entry): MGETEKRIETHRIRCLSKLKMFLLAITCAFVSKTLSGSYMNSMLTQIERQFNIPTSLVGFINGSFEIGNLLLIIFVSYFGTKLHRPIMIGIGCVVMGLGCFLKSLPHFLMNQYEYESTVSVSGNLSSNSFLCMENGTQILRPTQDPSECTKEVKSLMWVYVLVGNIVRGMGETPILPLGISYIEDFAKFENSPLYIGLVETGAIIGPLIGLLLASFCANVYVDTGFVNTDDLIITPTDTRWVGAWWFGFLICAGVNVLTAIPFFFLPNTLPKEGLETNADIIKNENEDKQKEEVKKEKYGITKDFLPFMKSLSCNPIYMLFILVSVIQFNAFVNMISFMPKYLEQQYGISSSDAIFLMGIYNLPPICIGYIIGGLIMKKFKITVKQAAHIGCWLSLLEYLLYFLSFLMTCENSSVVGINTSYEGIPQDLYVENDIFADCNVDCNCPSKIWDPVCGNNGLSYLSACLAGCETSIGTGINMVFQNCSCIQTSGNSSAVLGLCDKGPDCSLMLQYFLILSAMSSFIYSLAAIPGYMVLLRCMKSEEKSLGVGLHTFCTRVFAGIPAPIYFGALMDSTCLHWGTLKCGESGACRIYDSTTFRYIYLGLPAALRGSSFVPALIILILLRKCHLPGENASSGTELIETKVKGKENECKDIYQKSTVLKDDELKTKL
# maps each entry to its pIC50
// pIC50 here means minus log10 of the molar concentration (mol/L)

input: What does the record list as pIC50 for CC#C[C@@H](CC(=O)O)c1ccc(OCC(C)=C(C)C)cc1 [CPL207280] ?
output: 3.93

Next item in the queue.
input: Recorded pIC50 for Cc1cc(OCCCS(C)(=O)=O)cc(C)c1-c1cccc(COc2ccc3c(c2)OC[C@H]3CC(=O)O)c1 [TAK-875, fasiglifam, reference compound] , please?
output: 4.97

###

assay: Single-dose pharmacokinetics in rats (p.o. and i.v.); type: in vivo, rat; conditions: rat, plasma, po, 3 mg/kg, rats, 3 mg/kg p.o.
measure: Tmax (h)
Use h as the unit, but write only the number.

input: What value of Tmax has been recorded for this entry: CC#C[C@@H](CC(=O)O)c1ccc(OCC(C)=C(C)C)cc1
output: 1

Read the next record carefully.
input: # Tmax lookup, item Cc1cc(OCCCS(C)(=O)=O)cc(C)c1-c1cccc(COc2ccc3c(c2)OC[C@H]3CC(=O)O)c1 [TAK-875, fasiglifam, reference compound]
output: 2

###

Entries and their measured Cmax follow.
assay: Single-dose pharmacokinetics in rats (p.o. and i.v.); type: in vivo, rat; details: rat, plasma, iv, 3 mg/kg, rats, 3 mg/kg i.v., n = 5; read-out: Cmax
Value expressed in ng/mL; do not type the unit.

input: Field request: Cmax | item: Cc1cc(OCCCS(C)(=O)=O)cc(C)c1-c1cccc(COc2ccc3c(c2)OC[C@H]3CC(=O)O)c1 [TAK-875, fasiglifam, reference compound]
output: 15100

Shifting focus to the compound that follows.
input: What does the record list as Cmax for CC#C[C@@H](CC(=O)O)c1ccc(OCC(C)=C(C)C)cc1 ?
output: 17400

Where these numbers come from: paper PMC8459971
